Biological target: SARS-CoV-2 full length Spike protein, lineage B.1.351 (SARS-CoV-2)
PARAMETER: bead assay binding signal
Lab note: write the figure by itself, no unit.

QUERY: Output bead assay binding signal of antibody 896 (antibody, V domains shown) VH: EVQLVESGGGVVQPGGSLRLSCAASGFTFDDYAMHWVRQVPGKGLEWVSLISGDGGSTYYADSVKGRFTISRDNSKNSLYVQMNSLRTEDTALYYCVKDRGGSGWDLNHYYYGMDVWGQGTTVTVSS VL: DIQLTQSPSFLSASVGDRVTVTCRASQGISSYLAWYQQKPGKAPKLLIYAAYTLQSGVPSRFSGSGSETEFTLTISSLQPEDFATYYCQQVKSYPLTFGGGTKVEIKR
RESULT: 946

Data credit: patent US20220356229A1
